All values here come from patent US20190233493A1.

# targetUnderTest: T1, RXFP1 receptor (UniProt Q9HBX9 1-757, limits assumed)
# T1 sequence (looked up): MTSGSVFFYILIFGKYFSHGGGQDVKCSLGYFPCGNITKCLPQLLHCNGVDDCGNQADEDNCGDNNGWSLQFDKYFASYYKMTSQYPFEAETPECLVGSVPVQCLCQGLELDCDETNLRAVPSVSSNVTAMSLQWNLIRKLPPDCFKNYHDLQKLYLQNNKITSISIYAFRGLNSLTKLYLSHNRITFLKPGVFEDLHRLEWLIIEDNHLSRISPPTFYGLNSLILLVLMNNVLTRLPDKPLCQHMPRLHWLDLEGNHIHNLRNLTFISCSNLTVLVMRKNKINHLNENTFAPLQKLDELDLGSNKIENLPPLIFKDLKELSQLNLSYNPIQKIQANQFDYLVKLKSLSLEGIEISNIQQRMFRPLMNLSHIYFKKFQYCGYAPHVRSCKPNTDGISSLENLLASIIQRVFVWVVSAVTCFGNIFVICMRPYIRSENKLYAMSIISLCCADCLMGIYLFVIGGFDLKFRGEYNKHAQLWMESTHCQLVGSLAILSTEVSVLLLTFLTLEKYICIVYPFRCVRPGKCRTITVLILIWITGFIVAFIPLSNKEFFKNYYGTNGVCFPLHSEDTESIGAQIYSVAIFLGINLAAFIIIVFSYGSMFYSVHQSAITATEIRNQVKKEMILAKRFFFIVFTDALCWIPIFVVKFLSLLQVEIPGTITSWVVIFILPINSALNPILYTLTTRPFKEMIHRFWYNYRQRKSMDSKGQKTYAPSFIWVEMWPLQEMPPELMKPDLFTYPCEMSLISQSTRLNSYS
# assayDetails: cell-based or functional assay
*1 amine or outer side, *2 acyl side, *3 side chain or, on linkers, in order; H or OH if unused. Primed or numbered codes have the meaning given here. Side-chain parts run from the residue outwards. [ ]: non-standard residue; d: D form. The star is where a group is joined. γGlu = O=C(O)[C@H](CCC(=O)[*:2])N[*:1]; 1Nal = N[C@@H](Cc1cccc2ccccc12)C(=O)O; Stearoyl = CCCCCCCCCCCCCCCCCC(=O)*; Palmitoyl = CCCCCCCCCCCCCCCC(=O)*; αMeK = C[C@](N)(CCCCN)C(=O)O; Nle = CCCC[C@H](N)C(=O)O; PEG2′ = PEG2 spacer unit; PEG2″ = not defined here; Aib = CC(C)(N)C(=O)O
assayEndpoint: EC50 (nM), OVCAR 5 cells (cAMP)
Number in nM, nothing else.

Previously resolved entries follow.
QUERY: Fill blank: measured EC50 (nM), OVCAR 5 cells (cAMP) of the binder Ac-LEGREKVRAQI[Aib][Aib]EG[Nle]STWS[Aib]RKKK([γGlu-γGlu-PEG2″-PEG2″-γGlu-Stearoyl])-NH2 [peptide of SEQ ID NO: 105] is ____.
RESULT: 0.03

QUERY: Need EC50 (nM), OVCAR 5 cells (cAMP) of Ac-LEGREKVRAK(Ac)I[Aib][Aib]EG[Nle]STFS[αMeK]RAK(Ac)[PEG2″][PEG2″][PEG2″][PEG2″][γGlu][γGlu][γGlu]K([γGlu-Palmitoyl])-NH2 [peptide of SEQ ID NO: 149] , thanks.
RESULT: 0.11

QUERY: Sample Ac-LEGREKVR[Aib]K(Ac)I[Aib][Aib]EG[Nle]ST[1Nal]S[Aib]RKK(Ac)K([PEG2′-PEG2′-PEG2′-γGlu-γGlu-γGlu-Stearoyl])-NH2 [peptide of SEQ ID NO: 85] — what was its EC50 (nM), OVCAR 5 cells (cAMP)?
RESULT: 0.77

Moving on to the next binder.
QUERY: Recorded EC50 (nM), OVCAR 5 cells (cAMP) of Ac-LEGREKVRAQI[Aib][Aib]EG[Nle]STWS[Aib]RK[PEG2″]K([γGlu-γGlu-γGlu-Palmitoyl])-NH2 [peptide of SEQ ID NO: 10] , please.
RESULT: 18.9
